Listed here are molecules together with their documented Relative to UNC0638 UNC Light.
# tgt: T1, G9a and GLP (Homo sapiens, UniProt Q96KQ7+Q9H9B1)
# T1 sequence (Q96KQ7 2-1210 limits assumed): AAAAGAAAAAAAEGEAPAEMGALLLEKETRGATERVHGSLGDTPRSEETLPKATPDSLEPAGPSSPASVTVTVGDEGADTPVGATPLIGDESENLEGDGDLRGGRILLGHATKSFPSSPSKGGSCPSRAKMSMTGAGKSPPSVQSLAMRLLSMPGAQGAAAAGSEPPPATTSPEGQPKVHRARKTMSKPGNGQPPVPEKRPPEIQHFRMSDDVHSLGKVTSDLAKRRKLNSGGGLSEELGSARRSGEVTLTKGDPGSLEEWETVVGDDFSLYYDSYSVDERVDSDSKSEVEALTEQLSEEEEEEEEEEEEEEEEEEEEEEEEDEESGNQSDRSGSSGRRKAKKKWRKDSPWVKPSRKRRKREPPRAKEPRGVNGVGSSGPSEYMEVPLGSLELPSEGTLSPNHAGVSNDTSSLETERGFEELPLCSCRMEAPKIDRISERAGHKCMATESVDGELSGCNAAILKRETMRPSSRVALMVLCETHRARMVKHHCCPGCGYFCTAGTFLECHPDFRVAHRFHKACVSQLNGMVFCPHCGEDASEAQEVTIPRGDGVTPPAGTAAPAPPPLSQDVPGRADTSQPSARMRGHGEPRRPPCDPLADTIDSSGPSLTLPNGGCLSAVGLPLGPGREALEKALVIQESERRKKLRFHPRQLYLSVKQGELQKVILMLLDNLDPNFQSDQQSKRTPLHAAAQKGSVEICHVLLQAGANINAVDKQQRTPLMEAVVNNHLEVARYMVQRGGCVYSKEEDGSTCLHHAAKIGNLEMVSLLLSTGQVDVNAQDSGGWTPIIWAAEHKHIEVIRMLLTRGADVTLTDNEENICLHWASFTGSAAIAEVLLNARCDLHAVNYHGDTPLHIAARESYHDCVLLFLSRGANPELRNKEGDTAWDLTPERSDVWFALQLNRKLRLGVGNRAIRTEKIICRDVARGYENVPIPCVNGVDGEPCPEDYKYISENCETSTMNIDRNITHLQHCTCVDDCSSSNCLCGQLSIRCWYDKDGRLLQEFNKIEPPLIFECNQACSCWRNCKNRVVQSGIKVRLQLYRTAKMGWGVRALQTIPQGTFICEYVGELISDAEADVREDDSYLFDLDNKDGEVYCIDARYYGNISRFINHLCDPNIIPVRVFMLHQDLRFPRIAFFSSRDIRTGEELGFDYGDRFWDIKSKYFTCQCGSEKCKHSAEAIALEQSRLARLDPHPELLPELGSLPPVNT
# T1 sequence (Q9H9B1 2-1298 limits assumed): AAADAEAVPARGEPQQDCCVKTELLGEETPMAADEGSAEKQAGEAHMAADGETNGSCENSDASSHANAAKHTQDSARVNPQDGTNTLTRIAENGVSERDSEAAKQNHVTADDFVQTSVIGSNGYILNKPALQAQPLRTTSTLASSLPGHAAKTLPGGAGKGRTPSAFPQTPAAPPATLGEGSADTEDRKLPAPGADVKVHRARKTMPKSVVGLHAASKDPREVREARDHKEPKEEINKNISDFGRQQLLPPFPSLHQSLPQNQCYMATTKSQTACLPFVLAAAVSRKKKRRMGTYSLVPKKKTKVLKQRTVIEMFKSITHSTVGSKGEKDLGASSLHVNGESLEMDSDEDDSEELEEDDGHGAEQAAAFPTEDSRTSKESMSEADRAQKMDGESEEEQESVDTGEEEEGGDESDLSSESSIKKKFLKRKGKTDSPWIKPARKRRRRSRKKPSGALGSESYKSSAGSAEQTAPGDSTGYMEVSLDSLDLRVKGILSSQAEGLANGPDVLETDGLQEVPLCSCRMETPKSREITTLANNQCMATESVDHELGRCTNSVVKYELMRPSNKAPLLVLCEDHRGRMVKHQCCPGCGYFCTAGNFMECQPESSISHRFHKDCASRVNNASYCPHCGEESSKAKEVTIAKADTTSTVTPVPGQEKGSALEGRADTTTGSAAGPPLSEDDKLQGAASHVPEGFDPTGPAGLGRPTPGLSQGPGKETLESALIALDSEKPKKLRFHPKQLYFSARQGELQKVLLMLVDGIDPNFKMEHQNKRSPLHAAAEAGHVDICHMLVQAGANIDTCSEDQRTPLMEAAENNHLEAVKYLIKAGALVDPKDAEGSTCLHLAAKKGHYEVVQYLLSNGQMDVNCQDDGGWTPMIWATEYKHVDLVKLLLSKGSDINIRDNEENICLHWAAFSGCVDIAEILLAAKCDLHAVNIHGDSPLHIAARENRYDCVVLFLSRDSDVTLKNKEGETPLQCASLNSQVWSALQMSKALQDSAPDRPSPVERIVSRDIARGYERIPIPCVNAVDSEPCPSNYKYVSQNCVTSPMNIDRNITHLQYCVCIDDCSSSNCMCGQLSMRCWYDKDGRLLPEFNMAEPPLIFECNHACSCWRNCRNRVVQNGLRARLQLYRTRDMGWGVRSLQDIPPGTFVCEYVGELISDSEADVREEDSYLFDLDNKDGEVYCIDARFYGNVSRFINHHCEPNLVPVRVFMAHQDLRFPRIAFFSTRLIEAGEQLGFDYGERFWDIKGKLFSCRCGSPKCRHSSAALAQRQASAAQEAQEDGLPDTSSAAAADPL
# protocol.details: Triple SILAC pull-down after UNC0638 treatment of 293T cells, DMSO/UNC0638 ratio of protein captured by 3×MBT;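 also: mass spectrometry (Q-Exactive) SILAC quantitation, DMSO/UNC0638 ratio computed after subtracting 3×MBTD355N mutant pull-down background, only proteins with at least twofold 3×MBT over mutant signal considered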
# Assay type: cell-based
# Set-up: cells were treated for 24 hours with UNC0638 at 2.5 μM or DMSO vehicle control; endogenous in cells; host or cells: HEK 293T
# run.conditions: SILAC ratio DMSO relative to UNC0638, pull-down with 3xMBT; UNC0638 in light SILAC media; all values in log base 2
Supply the numeric figure in log base 2, leaving out any unit text.

- molecule: "NPM3 (protein, UniProt O75607 2-178, looked up) Nucleoplasmin-3: AAGTAAALAFLSQESRTRAGGVGGLRVPAPVTMDSFFFGCELSGHTRSFTFKVEEEDDAEHVLALTMLCLTEGAKDECNVVEVVARNHDHQEIAVPVANLKLSCQPMLSLDDFQLQPPVTFRLKSGSGPVRITGRHQIVTMSNDVSEEESEEEEEDSDEEEVELCPILPAKKQGGRP"
  endpoint.value: 0.03
- molecule: "THYN1 (protein, UniProt Q9P016 1-225, looked up) Thymocyte nuclear protein 1: MSRPRKRLAGTSGSDKGLSGKRTKTENSGEALAKVEDSNPQKTSATKNCLKNLSSHWLMKSEPESRLEKGVDVKFSIEDLKAQPKQTTCWDGVRNYQARNFLRAMKLGEEAFFYHSNCKEPGIAGLMKIVKEAYPDHTQFEKNNPHYDPSSKEDNPKWSMVDVQFVRMMKRFIPLAELKSYHQAHKATGGPLKNMVLFTRQRLSIQPLTQEEFDFVLSLEEKEPS"
  endpoint.value: 0.18

Then there is this molecule:
Which Relative to UNC0638 UNC Light is reported for this molecule? DUSP3 (protein, UniProt P51452 1-185, looked up) Dual specificity protein …: MSGSFELSVQDLNDLLSDGSGCYSLPSQPCNEVTPRIYVGNASVAQDIPKLQKLGITHVLNAAEGRSFMHVNTNANFYKDSGITYLGIKANDTQEFNLSAYFERAADFIDQALAQKNGRVLVHCREGYSRSPTLVIAYLMMRQKMDVKSALSIVRQNREIGPNDGFLAQLCQLNDRLAKEGKLKP
−1.35

Source listed as patent US20140274782A1.
